Provide the recorded viability, T/C for the entries that follow.
test system: 695427-040-R-J1-PDC complex spheroid viability; assay: Anticancer human tumor 695427-040-R-J1-PDC patient-derived colon adenocarcinoma cell line growth inhibition [RAS]; conditions: second compound 0.00316 µM; first compound 0.00316 µM; stronger effect = lower value;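 also: viability read after seven days of drug exposure; 100% = DMSO vehicle control viability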
Numeric only. Scale: %

Query: Form field: reported viability, T/C of CC(C)n1nc(-c2ccc3oc(N)nc3c2)c2c(N)ncnc21 + C=CC(=O)N1CCN(c2nc(OCC3CCCN3C)nc3c(F)c(-c4nc(N)cc(C)c4C(F)(F)F)c(Cl)cc23)C(C)C1
Reply: 82.4

Query: Requested field: viability, T/C. Item: Nc1ccn(C2OC(CO)C(O)C2(F)F)c(=O)n1 (stereo not given) + C=CC(=O)N1CCN(c2nc(OCC3CCCN3C)nc3c(F)c(-c4nc(N)cc(C)c4C(F)(F)F)c(Cl)cc23)C(C)C1
Reply: 93.3

Query: Would you mind telling me what viability, T/C value was observed for O=C(c1ccc(F)c(F)c1Nc1ccc(I)cc1F)N1CC(O)([C@@H]2CCCCN2)C1 + C=CC(=O)N1CCN(c2nc(OCC3CCCN3C)nc3c(F)c(-c4nc(N)cc(C)c4C(F)(F)F)c(Cl)cc23)C(C)C1 ?
Reply: 81.5

Query: Which viability, T/C reading was recorded for the compound CCN1CCN(Cc2ccc(Nc3ncc(F)c(-c4cc(F)c5nc(C)n(C(C)C)c5c4)n3)nc2)CC1 + C=CC(=O)N1CCN(c2nc(OCC3CCCN3C)nc3c(F)c(-c4nc(N)cc(C)c4C(F)(F)F)c(Cl)cc23)C(C)C1 ?
Reply: 93

Query: // viability, T/C lookup, key: C=CC(=O)Nc1cc(Nc2nccc(-c3cn(C)c4ccccc34)n2)c(OC)cc1N(C)CCN(C)C + C=CC(=O)N1CCN(c2nc(OCC3CCCN3C)nc3c(F)c(-c4nc(N)cc(C)c4C(F)(F)F)c(Cl)cc23)C(C)C1
Reply: 96.5
